Molecular target: Human FRA on IGROV-1 human ovarian adenocarcinoma cells (human, UniProt P15328 25-234)
Sequence (P15328 25-234 limits assumed): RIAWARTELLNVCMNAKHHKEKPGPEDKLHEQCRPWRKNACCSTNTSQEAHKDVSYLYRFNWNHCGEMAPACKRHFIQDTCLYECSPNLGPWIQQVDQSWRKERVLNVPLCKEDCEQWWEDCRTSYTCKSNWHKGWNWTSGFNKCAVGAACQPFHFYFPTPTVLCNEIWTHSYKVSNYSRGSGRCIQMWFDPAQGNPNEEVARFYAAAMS
Test: cell-based or functional assay

Binder	INTL % (0 Min) (%)
MORAb-003 anti-FRA antibody, lot NB809-68 (high CO2; harvested 13 days after initiation of culture) (antibody, human IgG1, kappa, V domains shown, N-linked neutral glycans at Asn299 in SEQ ID NO: 5) VH: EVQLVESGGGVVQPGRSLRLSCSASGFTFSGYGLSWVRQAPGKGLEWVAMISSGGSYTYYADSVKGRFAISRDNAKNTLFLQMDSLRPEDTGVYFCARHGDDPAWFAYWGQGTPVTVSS VL: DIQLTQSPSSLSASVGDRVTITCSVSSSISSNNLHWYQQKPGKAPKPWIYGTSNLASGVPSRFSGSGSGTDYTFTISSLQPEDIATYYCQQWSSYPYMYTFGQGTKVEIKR	0
MORAb-003 anti-FRA antibody, lot NB809-70 (CuCl supplement; harvested 13 days after initiation of culture) (antibody, human IgG1, kappa, V domains shown, N-linked neutral glycans at Asn299 in SEQ ID NO: 5) VH: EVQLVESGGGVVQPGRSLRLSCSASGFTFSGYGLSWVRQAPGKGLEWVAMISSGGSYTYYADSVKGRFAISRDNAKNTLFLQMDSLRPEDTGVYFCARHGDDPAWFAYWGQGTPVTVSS VL: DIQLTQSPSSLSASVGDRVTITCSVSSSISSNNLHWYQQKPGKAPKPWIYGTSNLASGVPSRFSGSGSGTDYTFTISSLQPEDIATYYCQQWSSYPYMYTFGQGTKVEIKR	0
MORAb-003 anti-FRA antibody, lot NB809-66 (0.5 mM Na butyrate; harvested 13 days after initiation of culture) (antibody, human IgG1, kappa, V domains shown, N-linked neutral glycans at Asn299 in SEQ ID NO: 5) VH: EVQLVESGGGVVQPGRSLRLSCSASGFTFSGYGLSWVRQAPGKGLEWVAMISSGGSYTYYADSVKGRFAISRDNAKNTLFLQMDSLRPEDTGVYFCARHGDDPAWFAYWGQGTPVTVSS VL: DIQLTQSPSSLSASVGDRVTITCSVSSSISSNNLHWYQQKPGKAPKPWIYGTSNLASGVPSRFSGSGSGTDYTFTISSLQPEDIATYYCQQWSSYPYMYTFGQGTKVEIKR	0
MORAb-003 anti-FRA antibody, lot NB809-67 (low DO; harvested 13 days after initiation of culture) (antibody, human IgG1, kappa, V domains shown, N-linked neutral glycans at Asn299 in SEQ ID NO: 5) VH: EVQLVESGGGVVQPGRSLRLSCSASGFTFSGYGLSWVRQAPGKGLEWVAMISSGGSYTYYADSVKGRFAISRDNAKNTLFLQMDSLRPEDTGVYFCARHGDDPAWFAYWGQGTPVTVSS VL: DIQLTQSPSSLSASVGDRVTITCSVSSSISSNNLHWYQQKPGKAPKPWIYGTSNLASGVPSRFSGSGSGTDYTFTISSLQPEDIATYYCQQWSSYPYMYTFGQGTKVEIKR	0
MORAb-003 anti-FRA antibody, lot NB859-26 (harvested 17 days after initiation of culture) (antibody, human IgG1, kappa, V domains shown, N-linked neutral glycans at Asn299 in SEQ ID NO: 5, also called Day 17 harvest) VH: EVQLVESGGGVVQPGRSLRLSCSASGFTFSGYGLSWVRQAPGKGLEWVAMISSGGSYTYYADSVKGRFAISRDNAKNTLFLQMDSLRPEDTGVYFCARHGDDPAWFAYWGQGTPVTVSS VL: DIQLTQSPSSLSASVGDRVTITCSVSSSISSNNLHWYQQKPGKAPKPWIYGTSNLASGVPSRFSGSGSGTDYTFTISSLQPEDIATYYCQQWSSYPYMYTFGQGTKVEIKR	0
MORAb-003 anti-FRA antibody, lot NB810-13 (high osmolarity; harvested 14 days after initiation of culture) (antibody, human IgG1, kappa, V domains shown, N-linked neutral glycans at Asn299 in SEQ ID NO: 5) VH: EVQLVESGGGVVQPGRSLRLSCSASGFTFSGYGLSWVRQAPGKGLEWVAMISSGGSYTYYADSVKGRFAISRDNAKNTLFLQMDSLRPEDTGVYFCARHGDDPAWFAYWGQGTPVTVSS VL: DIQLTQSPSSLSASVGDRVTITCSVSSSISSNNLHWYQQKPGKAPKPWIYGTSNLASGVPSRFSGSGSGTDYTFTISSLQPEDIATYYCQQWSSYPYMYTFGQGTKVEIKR	0
MORAb-003 anti-FRA antibody, lot NB809-65 (positive control; harvested 13 days after initiation of culture) (antibody, human IgG1, kappa, V domains shown, N-linked neutral glycans at Asn299 in SEQ ID NO: 5, also called Pos. ctl; positive control (round 2)) VH: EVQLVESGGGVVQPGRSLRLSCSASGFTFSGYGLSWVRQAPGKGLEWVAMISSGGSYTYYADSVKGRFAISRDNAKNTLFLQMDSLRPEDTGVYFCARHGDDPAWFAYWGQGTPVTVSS VL: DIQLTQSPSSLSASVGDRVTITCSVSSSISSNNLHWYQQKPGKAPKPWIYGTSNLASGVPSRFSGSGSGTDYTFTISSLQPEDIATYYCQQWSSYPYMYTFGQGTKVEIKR	0
MORAb-003 anti-FRA antibody, lot NB810-11 (galactose supplement; harvested 14 days after initiation of culture) (antibody, human IgG1, kappa, V domains shown, N-linked neutral glycans at Asn299 in SEQ ID NO: 5) VH: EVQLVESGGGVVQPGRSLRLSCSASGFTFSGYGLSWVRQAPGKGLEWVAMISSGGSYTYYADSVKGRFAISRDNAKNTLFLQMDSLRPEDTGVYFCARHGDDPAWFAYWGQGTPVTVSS VL: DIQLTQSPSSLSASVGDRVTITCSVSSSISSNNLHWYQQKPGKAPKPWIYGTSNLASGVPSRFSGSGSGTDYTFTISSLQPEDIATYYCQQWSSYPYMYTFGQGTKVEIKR	0

Where these numbers come from: patent US20120164137A1
